tested on: Bacteria; test: Inhibition of NDM-1 (unknown origin) expressed in Escherichia coli BL21 (DE3) at 10 uM incubated for 3 mins by spectrophotometric analysis relative to control
assay.endpoint: inhibition

compound	inhibition
COc1ccc(N2/C(=N/c3ccc(I)cc3)CC2c2ccc(Cl)cc2Cl)cc1 (racemic)	> 50%

Request: Fill in the blank: the reported inhibition of c1ccc(/N=C2\CC(c3ccccc3)N2c2ccccc2)cc1 (racemic) is ____.
Result: > 50%

Request: // same read-out, input: Oc1ccc(N2/C(=N/c3ccccc3)CC2c2ccccc2)cc1 (racemic)
Result: > 50%

---

biological target: Class A carbapenemase KPC-2 (Escherichia coli); test: Inhibition of KPC-2 (unknown origin) expressed in Escherichia coli BL21 (DE3) incubated for 3 mins by spectrophotometric analysis
assay.endpoint: Ki

Known Ki results, listed for orientation:
compound	experimental.target	Ki
COc1ccc(N2/C(=N/c3ccccc3)CC2c2ccccc2)cc1OC (racemic)	Class A carbapenemase KPC-2 (Escherichia coli)	Not Active
COc1ccc(C2C/C(=N\c3ccccc3)N2c2ccc(OC)cc2)cc1 (racemic)	Class A carbapenemase KPC-2 (Escherichia coli)	Not Active
COc1ccc(N2/C(=N/c3ccccc3)CC2c2ccc(Cl)cc2)cc1 (racemic)	Class A carbapenemase KPC-2 (Escherichia coli)	Not Active
COc1ccc(N2/C(=N/c3ccccc3)CC2c2cccnc2)cc1 (racemic)	Class A carbapenemase KPC-2 (Escherichia coli)	Not Active

Request: Fill in the blank: the reported Ki of COc1ccc(N2/C(=N/c3ccccc3)CC2c2ccc(F)cc2)cc1 (racemic) is ____.
Result: Not Active

---

tested on: Bacteria; assay: Inhibition of OXA-48 (unknown origin) expressed in Escherichia coli BL21 (DE3) at 10 uM incubated for 3 mins by spectrophotometric analysis relative to control
assay.endpoint: inhibition (%)

compound	numeric.readout
COc1ccc(N2/C(=N/c3ccc(Cl)cc3)CC2c2ccc(Cl)cc2)cc1 (racemic)	27
COc1ccc(N2/C(=N/c3ccccc3)CC2c2ccc(I)cc2)cc1 (racemic)	33
CCOc1ccc(N2/C(=N/c3ccc(Cl)cc3)CC2c2ccc3ccccc3c2)cc1 (racemic)	30

a. c1ccc(COc2ccc(N3/C(=N/c4ccccc4)CC3c3ccccc3)cc2)cc1 (racemic)
b. COc1ccc(N2/C(=N/c3ccccc3)CC2c2cc(Cl)cc(Cl)c2)cc1 (racemic)
Request: Of a versus b , which is the one with smaller reported inhibition? Use the label to indicate which entry you chose.
Result: b

---

assay: Metabolic stability in mouse liver microsomes at 5 uM assessed as intrinsic clearance measured per mg protein by UPLC-MS/MS analysis; assay type: ADME, Microsome; conditions: read-out: CLH
assay.endpoint: microsomal CLint at 5 µM (µL/min/mg)

compound	unit.abbrev	microsomal CLint at 5 µM
COc1ccc(N2/C(=N/c3ccc(I)cc3)CC2c2ccc(Cl)cc2Cl)cc1 (racemic)	µL/min/mg	2

I. Oc1ccc(N2/C(=N/c3ccc(I)cc3)CC2c2ccc(Cl)cc2Cl)cc1 (racemic)
II. Clc1ccc(C2C/C(=N\c3ccc(I)cc3)N2c2ccc(OCc3ccccc3)cc2)c(Cl)c1 (racemic)
Request: Out of I and II , name the one with the higher microsomal CLint at 5 µM. Use the label to indicate which entry you chose.
Result: I

---

target: UniProt:A8DS27; test: Inhibition of KPC-2 (unknown origin) expressed in Escherichia coli BL21 (DE3) incubated for 3 mins by spectrophotometric analysis; conditions: read-out: Ki
assay.endpoint: Ki (µM)

Known Ki results, listed for orientation:
compound	unit.abbrev	numeric.readout
Clc1ccc(C2C/C(=N\c3ccc(I)cc3)N2c2ccc(OCc3ccccc3)cc2)c(Cl)c1 (racemic)	µM	3.69
CCOc1ccc(N2/C(=N/c3ccc(I)cc3)CC2c2ccc3ccccc3c2)cc1 (racemic)	µM	1.84
c1ccc(/N=C2\CC(c3ccccc3)N2c2ccccc2)cc1 (racemic)	µM	2.41
O=C(O)c1ccc(N2/C(=N/c3ccc(I)cc3)CC2c2ccc(Cl)cc2Cl)cc1 (racemic)	µM	4.15
COc1ccc(N2/C(=N/c3ccc(C(F)(F)F)cc3)CC2c2ccc(Cl)cc2Cl)cc1 (racemic)	µM	6.04

A. COc1ccc(N2/C(=N/c3ccccc3)CC2c2ccc3ccccc3c2)cc1 (racemic)
B. c1ccc(COc2ccc(N3/C(=N/c4ccccc4)CC3c3ccccc3)cc2)cc1 (racemic)
C. COc1ccc(N2/C(=N/c3ccccc3)CC2c2ccccc2)cc1 (racemic)
Request: Ranking field: Ki; order: falling. Please list the labels according to the requested order.
Result: C, A, B
(C: 3.6 µM, A: 2.2 µM, B: 1.15 µM)

---

tested on: HCT-116; assay: Cytotoxicity against human HCT-116 cells assessed as reduction in cell viability measured after 72 hrs by MTS assay; assay type: cell-based; details: HCT-116, 72 h
assay.endpoint: IC50

compound	IC50
COc1ccc(N2/C(=N/c3ccc(I)cc3)CC2c2ccc(Cl)cc2Cl)cc1 (racemic)	> 100 µM
Clc1ccc(C2C/C(=N\c3ccc(I)cc3)N2c2ccc(OCc3ccccc3)cc2)c(Cl)c1 (racemic)	> 100 µM

Request: Fill in the blank: the reported IC50 of Oc1ccc(N2/C(=N/c3ccc(I)cc3)CC2c2ccc(Cl)cc2Cl)cc1 (racemic) is ____.
Result: 32.3 µM

---

target: Class A carbapenemase KPC-2 (Escherichia coli); experiment: Inhibition of KPC-2 (unknown origin) expressed in Escherichia coli BL21 (DE3) incubated for 3 mins by spectrophotometric analysis
assay.endpoint: Ki

molecule	experimental.target	result
COc1ccc(/N=C2\CC(c3ccc(Cl)cc3)N2c2ccc(OC)cc2)cc1 (racemic)	Class A carbapenemase KPC-2 (Escherichia coli)	Not Active
c1ccc(/N=C2\CC(c3ccccc3)N2c2ccc3c(c2)OCO3)cc1 (racemic)	Class A carbapenemase KPC-2 (Escherichia coli)	Not Active
COc1cc(N2/C(=N/c3ccccc3)CC2c2ccccc2)cc(OC)c1OC (racemic)	Class A carbapenemase KPC-2 (Escherichia coli)	Not Active

---

biological target: Class A carbapenemase KPC-2 (Escherichia coli) (UniProt A8DS27); experiment: Inhibition of KPC-2 (unknown origin) expressed in Escherichia coli BL21 (DE3) at 10 uM incubated for 3 mins by spectrophotometric analysis relative to control
Listed compounds paired with reported inhibition

Request: inhibition, test system Class A carbapenemase KPC-2 (Escherichia coli) (UniProt A8DS27), entry COc1ccc(N2/C(=N/c3ccccc3)CC2c2ccc(I)cc2)cc1 (racemic)
Result: > 50%

---

target: UniProt A8DS27; test: Inhibition of KPC-2 (unknown origin) expressed in Escherichia coli BL21 (DE3) incubated for 3 mins by spectrophotometric analysis; settings: read-out: Ki
pKi: −log10 of the molar value.
assay.endpoint: pKi

Known pKi results, listed for orientation:
molecule	pKi
COc1ccc(N2/C(=N/c3ccc(I)cc3)CC2c2ccc3ccccc3c2)cc1 (racemic)	5.80
COc1ccc(N2/C(=N/c3ccc(C(F)(F)F)cc3)CC2c2ccc(Cl)cc2)cc1 (racemic)	5.63
Oc1ccc(N2/C(=N/c3ccc(I)cc3)CC2c2ccc(Cl)cc2Cl)cc1 (racemic)	6.55
CCOc1ccc(N2/C(=N/c3ccccc3)CC2c2ccccc2)cc1 (racemic)	5.85
COc1ccc(N2/C(=N/c3ccc(I)cc3)CC2c2ccc(Cl)cc2Cl)cc1 (racemic)	5.72
COc1ccc(N2/C(=N/c3ccc(Cl)cc3)CC2c2ccc3ccccc3c2)cc1 (racemic)	5.40

a. COc1ccc(N2/C(=N/c3ccc(Br)cc3)CC2c2ccc(Cl)cc2)cc1 (racemic)
b. OCc1ccc(N2/C(=N/c3ccc(I)cc3)CC2c2ccc(Cl)cc2Cl)cc1 (racemic)
c. COc1ccc(N2/C(=N/c3ccccc3)CC2c2ccc(I)cc2)cc1 (racemic)
Request: Ranking field: pKi; order: falling. Please list the labels according to the requested order.
Result: c, a, b
(c: 6.14, a: 5.81, b: 5.41)

---

system: Bacteria; assay: Inhibition of OXA-48 (unknown origin) expressed in Escherichia coli BL21 (DE3) at 10 uM incubated for 3 mins by spectrophotometric analysis relative to control
assay.endpoint: inhibition (%)

Known inhibition results, listed for orientation:
molecule	experimental.target	unit.abbrev	inhibition
COc1ccc(N2/C(=N/c3ccc(C(F)(F)F)cc3)CC2c2ccc(Cl)cc2)cc1 (racemic)	Bacteria	%	32
CCOc1ccc(N2/C(=N/c3ccccc3)CC2c2ccccc2)cc1 (racemic)	Bacteria	%	45

I. COc1ccc(N2/C(=N/c3ccc(Br)cc3)CC2c2ccc(Cl)cc2Cl)cc1 (racemic)
II. COc1ccc(/N=C2\CC(c3ccc(Cl)cc3)N2c2ccc(OC)cc2)cc1 (racemic)
Request: Out of I and II , name the one with the higher inhibition. Use the label to indicate which entry you chose.
Result: I

---

test system: Bacteria; assay: Inhibition of NDM-1 (unknown origin) expressed in Escherichia coli BL21 (DE3) at 10 uM incubated for 3 mins by spectrophotometric analysis relative to control
Listed molecules paired with reported inhibition

Known inhibition results, listed for orientation:
molecule	inhibition
COc1ccc(N2/C(=N/c3ccc(Cl)cc3)CC2c2ccc(Cl)cc2)cc1 (racemic)	> 50%
Clc1ccc(C2C/C(=N\c3ccc(I)cc3)N2c2ccc(OCc3ccccc3)cc2)c(Cl)c1 (racemic)	> 50%

Request: Fill in the blank: the reported inhibition of Ic1ccc(N2/C(=N/c3ccccc3)CC2c2ccccc2)cc1 (racemic) is ____.
Result: > 50%

Request: // same read-out, input: COc1ccc(C2C/C(=N\c3ccccc3)N2c2ccc(OC)cc2)cc1 (racemic)
Result: > 50%

Request: // same read-out, input: COc1ccc(N2/C(=N/c3ccccc3)CC2c2ccccc2)cc1 (racemic)
Result: 90%

Request: // same read-out, input: COc1ccc(N2/C(=N/c3ccccc3)C[C@H]2c2ccccc2)cc1
Result: 95%
